Please go through the items and note down their inhibition.
molecular target: Hexose transporter 1 (Plasmodium falciparum); test: ST_JUDE_LEISH: Cytotoxicity at 2uM final concentration against transgenic Leishmania Mexicana promastigotes LmPfHT that are glucose transport deficient and complemented with the Plasmodium falciparum hexose transporter. Activity is measured by DNA content using SYBR green in vitro; format: functional
All answers are understood in %, so give the number only.

In plain terms, `Cc1cc(Nc2cc(Cl)cc(Cl)c2)nc(N)n1` has a documented inhibition of 10.2

In plain terms, `COc1c(C2CCN(CCCCNC(=O)c3ccc(C)c(-c4ccc(C(F)(F)F)cc4)c3)CC2)ccc2c1CCCC2` has a documented inhibition of -1.46

In plain terms, `O=C(/C=C/c1ccc(Cl)c(Cl)c1)NCCCCCN1CCC(NC(=S)Nc2ccc(Cl)c(Cl)c2)CC1` has a documented inhibition of 5.09

In plain terms, Cc1c(C(=O)C2CC2CN2CCC(N3CCCC3)CC2)sc2ccccc12 (stereo not drawn) has a documented inhibition of 11.8

In plain terms, CCN(CC)C(=O)C1CCCN(C(=O)Nc2cc(C(F)(F)F)cc(C(F)(F)F)c2)C1 (stereo not drawn) has a documented inhibition of 0.55

In plain terms, `O=C(NCCCCCN1CCC(c2ccc(O)cc2)CC1)c1ccc(-c2ccccc2)cc1` has a documented inhibition of 3.34

In plain terms, `O=C(C=Cc1ccc(Cl)c(Cl)c1)NCCCCCN1CCC(c2n[nH]c3ccccc23)CC1` has a documented inhibition of 2.15

In plain terms, CCCCCC(C)N/C(=N/c1ccccc1Br)Nc1ccc([N+](=O)[O-])cc1O (stereo not drawn) has a documented inhibition of 1.7

In plain terms, CCCNC(=O)C1Cc2c([nH]c3cc(Br)ccc23)C2(CCN(CCc3ccccc3)CC2)N1 (stereo not drawn) has a documented inhibition of 1.9

In plain terms, C=C[C@]1(C)C[C@@H](OC(=O)CSC2CN3CCC2C3)[C@@]2(C)C3C(=O)CC[C@@]3(CC[C@H]2C)[C@@H](C)[C@@H]1O (stereo partly drawn) has a documented inhibition of 73.2

In plain terms, O=C(C=Cc1ccc(Cl)c(Cl)c1)NCCCCCN1CCCC(CCCNS(=O)(=O)c2ccc(Br)cc2)C1 (stereo not drawn) has a documented inhibition of 3.96

In plain terms, `O=C(Nc1cccc(-c2cc(-c3c(Cl)cccc3Cl)no2)c1)c1cncc(-c2cccs2)c1` has a documented inhibition of 11.1

In plain terms, `Cc1cccc2nc(-c3ccc(-c4ccc(CNCCCN5CCCC5=O)cc4)cc3)[nH]c12` has a documented inhibition of 5.8

In plain terms, `CCc1ccc(CN2CCC(CN(c3ccc(N4CCOCC4)c(F)c3)S(=O)(=O)c3ccc(C(C)(C)CC)cc3)CC2)cc1` has a documented inhibition of 0.74

In plain terms, `O=S(=O)(Nc1cccc(CCN2CCC(N3CCCCC3)CC2)c1)c1ccccc1C(F)(F)F` has a documented inhibition of 0.31

In plain terms, `CCN(CC)CCOc1c(Cl)cc(Cl)cc1CNCCCNc1cc(=O)c2ccccc2[nH]1` has a documented inhibition of 1.03

In plain terms, `Cc1cc(C)nc(-n2[nH]c(C)c(Cc3ccc(C(C)(C)C)cc3)c2=O)n1` has a documented inhibition of 5.45

In plain terms, `CCCSc1nc2c(c(=O)n1CCc1ccccc1)C1(CCCC1)Cc1ccccc1-2` has a documented inhibition of 1.38

In plain terms, `COc1cc(NCCCCCNc2cc(Cl)nc3ccccc23)nc2ccccc12` has a documented inhibition of 2.23

In plain terms, `COc1ccc(CCn2c(=N)c(C(=O)NCc3cccnc3)cc3c(=O)n4cccc(C)c4nc32)cc1` has a documented inhibition of 4.73

In plain terms, CCC1CN2CCc3c([nH]c4ccccc34)[C@@H]2C[C@@H]1CC1NCCc2cc(OC)c(OC)cc21 (stereo partly drawn) has a documented inhibition of -1.25

In plain terms, `CN1CCN(CCCN(Cc2cccc(-c3cccc(CNCc4ccc5c(c4)OCO5)c3)c2)C(=O)CCC2CCCC2)CC1` has a documented inhibition of 12.2

In plain terms, `Cc1ccc(C(=O)N2CCc3cc4nccc(N5CCN6CCC[C@H]6C5)c4cc32)cc1` has a documented inhibition of 0.6

In plain terms, `CCOC(=O)C1CCN(CCCNC(=O)/C(=C/C=C/c2cc3cc(Cl)c(Cl)cc3[nH]2)OC)CC1` has a documented inhibition of 4.1

In plain terms, `O=C(NCc1cccc(OC(F)(F)F)c1)c1cnc2c(c1)nc(-c1c[nH]c(-c3ccccc3)n1)n2CCc1c[nH]cn1` has a documented inhibition of 2.34

In plain terms, CC(C)c1ccc(NC(=O)NC2CCN(CCCCCN(C)C(=O)/C=C/c3ccc(Cl)c(Cl)c3)C2)cc1 (stereo not drawn) has a documented inhibition of 7.26

In plain terms, `COc1ccc(C=NN=c2cc(C)[nH]c3ccccc23)cc1OC` has a documented inhibition of 9.53

In plain terms, `COc1cc2c(cc1NS(=O)(=O)c1ccc(OCc3ccc(Br)cc3)cc1)CCN(C1CCC1)CC2` has a documented inhibition of -0.8

In plain terms, CCCNCc1ccc(-c2ccc(CN(CC3CCCO3)C(=O)C3CC(=O)c4ccccc43)cc2)nc1 (stereo not drawn) has a documented inhibition of 3.74

In plain terms, `Cc1csc(-c2nc(NCCc3c(C)noc3C)ncc2-c2ccsc2)n1` has a documented inhibition of 11.5

In plain terms, `NC1=NC(c2ccccc2)(c2ccccc2)C(=O)N1CC1CCC1` has a documented inhibition of 2.21

In plain terms, `NCCCNc1ccnc2cc(Cl)ccc12` has a documented inhibition of 1.55

In plain terms, `Clc1ccc2c(NCCNc3ccnc4cc(Cl)ccc34)ccnc2c1` has a documented inhibition of -2.22

In plain terms, `CC(C)c1ccc(NC(=O)c2cccc(CN3CCCN(CC4CCCCC4)CC3)c2)cc1` has a documented inhibition of 7.21

In plain terms, `CCCCCCn1c(Sc2ccc(C#N)c([N+](=O)[O-])c2)nnc1-c1cc(OC)cc(OC)c1` has a documented inhibition of 6.04

In plain terms, COc1ccc(-n2nc(C)c3c2NC(=O)CC3c2ccccc2OCc2ccc(F)cc2)cc1 (stereo not drawn) has a documented inhibition of 4.4

In plain terms, `CC1(C)NC(N)=NC(=N)N1OCc1ccc(-c2ccccc2)cc1` has a documented inhibition of 5.93

In plain terms, Cc1cccc2nc(-c3ccc(-c4ccc(CN5CC(C)OC(C)C5)cc4)cc3)[nH]c12 (stereo not drawn) has a documented inhibition of 3.58
